system: rat small-intestinal brush border membrane vesicles; experiment: Inhibitory effect on 33PO4 uptake into rat small-intestinal brush border membrane vesicles (rapid filtration method); assay type: biochemical, Wistar female rat; conditions: 1 µM test compound; 33PO4 uptake into rat small-intestinal BBMVs, 60 seconds
ATTRIBUTE_MEASURED: Rate of uptake inhibition (%) (1 µM)
# value in %; strip the unit string

In plain terms, CN1[C@@H](C(C)(C)C)C(O)=C(C(=O)Nc2ccc(Cl)cc2-c2ccc(C(F)(F)F)nc2)C(=O)N1Cc1ccc(OCCN2CCOCC2)c(F)c1F has a documented Rate of uptake inhibition (%) (1 µM) of 71

In plain terms, C[C@]12CCCN1N(Cc1cccc(C#N)c1)C(=O)C(C(=O)Nc1ccc(C(F)(F)F)cc1-c1cc(C(F)(F)F)ncn1)=C2O has a documented Rate of uptake inhibition (%) (1 µM) of 83

In plain terms, CC(C)[C@@H]1C(O)=C(C(=O)Nc2ccc(Cl)cc2-c2ccc(C(F)(F)F)nc2)C(=O)N(Cc2cccc(F)c2F)N1C has a documented Rate of uptake inhibition (%) (1 µM) of 43

In plain terms, CN1N(Cc2ccc(OCCN3C4CCC3COC4)c(F)c2F)C(=O)C(C(=O)Nc2ccc(C(F)(F)F)cc2-c2cc(C(F)(F)F)ncn2)=C(O)C12CCC2 has a documented Rate of uptake inhibition (%) (1 µM) of 63

In plain terms, CN1N(Cc2ccc(OCCN3CCN(CCOCCO)CC3)c(F)c2F)C(=O)C(C(=O)Nc2ccc(C(F)(F)F)cc2-c2cc(C(F)(F)F)ncn2)=C(O)C12CCCC2 has a documented Rate of uptake inhibition (%) (1 µM) of 35

In plain terms, CCOc1cccc(-c2cc(C(F)(F)F)ccc2NC(=O)C2=C(O)[C@@]3(C)CCCN3N(Cc3cccc(F)c3F)C2=O)c1OC has a documented Rate of uptake inhibition (%) (1 µM) of 96
